# System: HCC-2998 colon
# Assay overview: NCI-60 one-dose screen, 48 h (100 = growth as untreated, 0 = no growth, -100 = all killed)
# Setup conditions: 10 µM unless noted
About 83,000 compounds went through this panel and 20% of them were active in at least one assay; those are over-represented in the sample as a whole.
// growth lookup, one value per entry

| Compound | Measurement units | growth |
| --- | --- | --- |
| C=C[C@@H]1C[C@@H]2Cc3cc(F)ccc3N1O2 | % | 95.3 |
| C=C1CCC2C3(C)COC(c4ccccc4)OC3CCC2(C)C1/C=C/C1=CCOC1=O (stereo unspecified) | % | 111 |
| O=[N+]([O-])c1cc(Cl)c2[nH]c3c(Cl)cc([N+](=O)[O-])cc3c2c1 | % | 34.8 |
| N=c1ccc2nc3ccc(N)cc3sc-2c1 | % | 53.2 |
| CNc1ccc(Br)c2c1C(=O)c1ccccc1C2=O | % | 109 |
| COc1ccc(C2=Nn3c(nnc3-n3nc(C)cc3C)SC2)cc1 | % | 4.24 |
